- Tested on: S. aureus
- Assay type: cell-based, Staphylococcus aureus
- Condition: 18 h
Non-standard residues stand in square brackets, D forms with d. Residues, ends and D or L forms follow the SMILES beside them. *: point of attachment. 2Nal = N[C@@H](Cc1ccc2ccccc2c1)C(=O)O; Nle = CCCC[C@H](N)C(=O)O; Octanoyl = CCCCCCCC(=O)*
# if measured Antimicrobial activity (IC50, μg/ml) S. aureus < 7 µg/mL: true (1)  # else: false (0)

>>> group("CSCC[C@@H](NC(=O)[C@H](Cc1c[nH]c2ccccc12)NC(=O)[C@H](CCCNC(=N)N)NC(=O)[C@H](Cc1c[nH]c2ccccc12)NC(=O)[C@H](Cc1c[nH]c2ccccc12)NC(=O)[C@H](CCCNC(=N)N)NC(=O)[C@H](Cc1ccc2ccccc2c1)NC(C)=O)C(N)=O [Peptide V19_Ac, Ac-ZRWWRWm-NH2] (Ac-[2Nal]RWWRW[dM]-NH2)")
"true (1)"
>>> group("CSCC[C@@H](NC(=O)[C@H](Cc1c[nH]c2ccccc12)NC(=O)[C@H](CCCNC(=N)N)NC(=O)[C@H](Cc1c[nH]c2ccccc12)NC(=O)[C@H](Cc1c[nH]c2ccccc12)NC(=O)[C@@H](NC(=O)[C@H](CCCNC(=N)N)NC(=O)[C@H](Cc1c[nH]c2ccccc12)NC(=O)[C@H](Cc1c[nH]c2ccccc12)NC(=O)[C@H](CCCNC(=N)N)NC(=O)[C@H](Cc1ccc2ccccc2c1)NC(C)=O)C(C)C)C(N)=O [Peptide V22_Ac, Ac-ZRWWRVWWRWm-NH2] (Ac-[2Nal]RWWRVWWRW[dM]-NH2)")
"false (0)"
>>> group("CCCC[C@H](NC(=O)[C@H](CCCNC(=N)N)NC(=O)[C@H](Cc1c[nH]c2ccccc12)NC(=O)[C@H](Cc1c[nH]c2ccccc12)NC(=O)[C@H](CCCNC(=N)N)NC(=O)[C@H](Cc1ccc2ccccc2c1)NC(C)=O)C(=O)N[C@@H](Cc1c[nH]c2ccccc12)C(=O)N[C@@H](Cc1c[nH]c2ccccc12)C(=O)N[C@@H](CCCNC(=N)N)C(=O)N[C@@H](Cc1c[nH]c2ccccc12)C(=O)N[C@H](CCSC)C(N)=O [Peptide V23_Ac, Ac-ZRWWR-Nle-WWRWm-NH2] (Ac-[2Nal]RWWR[Nle]WWRW[dM]-NH2)")
"false (0)"
>>> group("CCCCCCCC(=O)N[C@@H](CCCNC(=N)N)C(=O)N[C@@H](Cc1c[nH]c2ccccc12)C(=O)N[C@@H](CCCNC(=N)N)C(=O)N[C@@H](Cc1c[nH]c2ccccc12)C(=O)N[C@@H](Cc1ccc2ccccc2c1)C(=O)N[C@@H](Cc1c[nH]c2ccccc12)C(N)=O [Peptide V16, Oct-RWRWZW-NH2] (Octanoyl-RWRW[2Nal]W-NH2)")
"true (1)"
